Quick reference: normalized growth of the listed items.
experiment: chemical genetic growth profiling, strain panel (AID 1159580);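 note: tested at 20 µM; growth read once vehicle control cultures reached saturation at 30 °C; 1 = growth at the plate median or of vehicle wells; lower values mean less growth of the strain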; conditions: S. cerevisiae deletion strains, growth OD, locus YDL101C, strain DUN1, stronger effect = lower value
Out of some 5,500 compounds screened, about 2,000 (36%) were called active. Roughly 18% stayed inconclusive and do not appear here. The list shows a part of the results.
Write no unit; give the number alone.

compound CC1O[C@@H](Oc2c(-c3ccc(O)c(O)c3)oc3cc(O)cc(O)c3c2=O)[C@H](O)[C@H](O)[C@H]1O (some centres undefined) , normalized growth observed: 0.991

compound CC(C)(C)C(=O)NC(=S)N/N=C\c1cc(Cl)cc(Cl)c1O , normalized growth observed: 0.949
